# Study target: T1, biotin-labeled human CD137 fused to human IgG1 Fc fragment (human, biotin-labeled);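 further: bead ELISA on streptavidin-coated magnetic beads, with the signal read as well fluorescence 2 min after APS-5 addition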
# T1 construct: Immobilised on streptavidin beads through biotin; also called human CD137-Fc; biotin-human CD137-Fc
# Test method notes: competitive bead ELISA, IgG on biotin-human CD137-Fc, competitor free CD3 epsilon peptide 125 pmol/well
Answer false (0) if ELISA signal, free CD3e 125 pmol/well is under 3000, and true (1) if it is 3000 or more.

{"Binder": "dBBDu199 (antibody, human IgG1, V domains shown, IgG: VH joined to human IgG1 CH1-Fc, GLS3000 as light chain) VH: QVQLVESGGGLVQPGRSLRLSCAASGFTFSNAWMHWVRQAPGKGLEWVAQIKDKQSGYNTYYAPSVKGRFTISRDDSKNSIYLQMNSLKTEDTAVYYCHYVHYASASTVLPAFGVDAWGQGTTVTVSS VL: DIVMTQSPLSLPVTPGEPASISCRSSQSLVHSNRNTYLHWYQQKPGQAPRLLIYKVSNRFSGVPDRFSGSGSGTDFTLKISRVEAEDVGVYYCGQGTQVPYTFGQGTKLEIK", "Assigned category": "false (0)"}
{"Binder": "dBBDu126 (antibody, human IgG1, V domains shown, IgG: VH joined to human IgG1 CH1-Fc, GLS3000 as light chain; also called DADU01_3_#001; DADU01_3 #001) VH: QVQLVESGGGLVQPGRSLRLSCAASGFTFSIAWMHWVRQAPGKGLEWVAQIKDRVNAYEAYYAPSVKGRFTISRDDSKNSIYLQMNSLKTEDTAVYYCRYVHYASYYDLLGYGGVDAWGQGTTVTVSS VL: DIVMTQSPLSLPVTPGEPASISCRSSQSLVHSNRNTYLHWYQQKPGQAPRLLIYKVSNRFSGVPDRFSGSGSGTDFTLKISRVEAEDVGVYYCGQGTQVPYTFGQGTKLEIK", "Assigned category": "false (0)"}
{"Binder": "dBBDu127 (antibody, human IgG1, V domains shown, IgG: VH joined to human IgG1 CH1-Fc, GLS3000 as light chain; also called DXDU01_3_#051; DXDU01_3 #051) VH: QVQLVESGGGLVQPGRSLRLSCAASGFTFSNAWMHWVRQAPGKGLEWVAQIKDRGQQYNAYYAPSVKGRFTISRDDSKNSIYLQMNSLKTEDTAVYYCHYVHYASASSVLPGYGVDAWGQGTTVTVSS VL: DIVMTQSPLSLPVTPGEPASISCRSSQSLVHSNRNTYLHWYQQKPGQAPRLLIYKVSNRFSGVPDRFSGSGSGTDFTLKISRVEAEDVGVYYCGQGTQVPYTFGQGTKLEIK", "Assigned category": "false (0)"}
{"Binder": "Du115/DUL008 (antibody, V domains shown, Human IgG1 format; also called dBBDu_115 with L008) VH: QVQLVESGGGLVQPGRSLRLSCAASGFTFSNAWMHWVRQAPGKGLEWVAQIKDKANSYNTYYAPSVKGRFTISRDDSKNSIYLQMNSLKTEDTAVYYCRYVHYGSSYGFLFAGYGVDAWGQGTTVTVSS VL: DIVMTQSPLSLPVTPGEPASISCQSSEELLHANRKTYLHWYQQKPGQAPRLLIYKVQNRFSGVPDRFSGSGSGTDFTLKISRVEAEDVGVYYCAQGTATPFTFGQGTKLEIK", "Assigned category": "false (0)"}
{"Binder": "anti-human CD137 antibody described in WO2005/035584A1 (abbreviated as B) (antibody, V domains shown, also called control anti-CD137 antibody) VH: QVQLQQWGAGLLKPSETLSLTCAVYGGSFSGYYWSWIRQSPEKGLEWIGEINHGGYVTYNPSLESRVTISVDTSKNQFSLKLSSVTAADTAVYYCARDYGPGNYDWYFDLWGRGTLVTVSS VL: EIVLTQSPATLSLSPGERATLSCRASQSVSSYLAWYQQKPGQAPRLLIYDASNRATGIPARFSGSGSGTDFTLTISSLEPEDFAVYYCQQRSNWPPALTFGGGTKVEIK", "Assigned category": "true (1)"}
